Exercise: for every item that follows, state its recorded Yellow filter sensitivity (SY).
# Assay: Spectral sensitization of photographic silver halide emulsion
# Design: scale not given here
# Study Conditions: yellow filter SC-50, 5 seconds exposure; standard point Fog+0.2; Table 4

* CCN1C(=CC=c2sc(=Cc3oc4c5ccccc5ccc4[n+]3CC)n(CC)c2=O)Sc2c1ccc1ccccc21 [Compound 86] | 890
* CCn1c(=CC2=[N+](CC)CCS2)sc(=C2Sc3ccccc3N2C)c1=O [Compound 142] | 300
* CCn1c(=Cc2oc3c4ccccc4ccc3[n+]2CC)sc(=C2Sc3ccccc3N2C)c1=O [Compound 134] | 1350

Next compound, Yellow filter sensitivity (SY) to be filled in.
input: Which Yellow filter sensitivity (SY) value belongs to CCn1c(=Cc2oc3ccc(-c4ccccc4)cc3[n+]2CC)sc(=C2Sc3ccccc3N2C)c1=O [Compound 133] ?
output: 1620

###

# Assay: Spectral sensitization of photographic silver halide emulsion
# Design: scale not given here
# Study Conditions: yellow filter SC-50, 5 seconds exposure; standard point Fog+0.2; Table 4
# Description: A silver halide emulsion comprising pure silver bromide and having a cubic crystal form (the area ratio of the plane to the entire surface area of grain being 92%) was prepared and subjected to a sulfur sensitization treatment. […] A spectrogram was obtained by using a grating spectrograph having a tungsten light source of 2666° K., and the maximum sensitization was measured. […]
Measurement Type: Yellow filter sensitivity (SY)
Give bare numbers.

Examples with answers:
* CCN1C(=CC=c2sc(=Cc3sc(-c4ccccc4)c(-c4ccccc4)[n+]3CC)n(CC)c2=O)Sc2ccc3ccccc3c21 [Compound 89] | 705
* CCn1c(=Cc2sc(-c3ccccc3)c(-c3ccccc3)[n+]2CC)sc(=CC=C2N(C)c3ccccc3C2(C)C)c1=O [Compound 91] | 1730
* CCN1C(=CC=c2sc(=Cc3sc(-c4ccccc4)c(-c4ccccc4)[n+]3CC)n(CC)c2=O)Oc2ccccc21 [Compound 88] | 2085
* CCn1c(=Cc2sc3cc(C)c(C)cc3[n+]2CC)sc(=C2Sc3ccc(OC)cc3N2C)c1=O [Compound 111] | 2085

Proceed to the following item.
input: Any idea what its Yellow filter sensitivity (SY) is? The compound is CCN1C(=CC=c2sc(=Cc3sc(-c4ccccc4)c(-c4ccccc4)[n+]3CC)n(CC)c2=O)Sc2ccccc21 [Comparative Compound 1, reference compound]
output: 100

###

# Assay: Spectral sensitization of photographic silver halide emulsion
# Study Conditions: spectrogram, tungsten light source of 2666° K.; Table 4
Measurement Type: Maximum Sensitization (nm)
One number for each entry, in nm.

Parameters: items (list). Returns: Maximum Sensitization for each item.
1. CCN1C(=CC=c2sc(=Cc3oc4c5ccccc5ccc4[n+]3CC)n(CC)c2=O)Sc2c1ccc1ccccc21 [Compound 86]
2. CCn1c(=Cc2sc3cc(C)c(C)cc3[n+]2CC)sc(=C2Sc3ccc(OC)cc3N2C)c1=O [Compound 111]

output:
1: 630; 2: 540

Parameters: items (list). Returns: Maximum Sensitization for each item.
1. CCN1C(=CC=c2sc(=Cc3sc(-c4ccccc4)c(-c4ccccc4)[n+]3CC)n(CC)c2=O)Oc2ccccc21 [Compound 88]
2. CCn1c(=Cc2sc(-c3ccccc3)c(-c3ccccc3)[n+]2CC)sc(=CC=C2N(C)c3ccccc3C2(C)C)c1=O [Compound 91]
3. CCN1C(=CC=c2sc(=Cc3sc(-c4ccccc4)c(-c4ccccc4)[n+]3CC)n(CC)c2=O)Sc2ccc3ccccc3c21 [Compound 89]
4. CCN1C(=CC=c2sc(=Cc3sc(-c4ccccc4)c(-c4ccccc4)[n+]3CC)n(CC)c2=O)Sc2ccccc21 [Comparative Compound 1, reference compound]

output:
1: 565; 2: 600; 3: 640; 4: 638

Kindly give each listed record's Maximum Sensitization.
1. CCn1c(=Cc2oc3c4ccccc4ccc3[n+]2CC)sc(=C2Sc3ccccc3N2C)c1=O [Compound 134]
2. CCn1c(=Cc2oc3ccc(-c4ccccc4)cc3[n+]2CC)sc(=C2Sc3ccccc3N2C)c1=O [Compound 133]
3. CCn1c(=CC2=[N+](CC)CCS2)sc(=C2Sc3ccccc3N2C)c1=O [Compound 142]

output:
1. 520
2. 520
3. 495

###

# Assay: Solubility in solvents (dissolution in incubator, filtration through microfilter, visible absorption)
# Assay type: physicochemical
# Study Conditions: water, H2O; 37° C., 12 hours; read-out: Solubility in H2O
# Text: The solubility of some of the compounds within formula (I) was accurately measured. The measurement of solubility was made in the following manner.
Measurement Type: solubility at 12 h (mM)
Give bare numbers, in mM.

input: Give its solubility at 12 h value. Item: CCN1C(=CC=c2sc(=Cc3sc4c5ccccc5ccc4[n+]3CC)n(CC)c2=O)Sc2ccc3ccccc3c21 [Compound 25]
output: 10.1

###

# Assay: Solubility in solvents (dissolution in incubator, filtration through microfilter, visible absorption)
# Assay type: physicochemical
# Study Conditions: water; Table 3; read-out: Solubility in Water
Measurement Type: solubility at 12 h (µg/mL)
Give bare numbers, in µg/mL.

* CCn1c(=CC2=CC(=Cc3sc4ccccc4[n+]3CC)Oc3ccccc32)sc(=C2Sc3ccc(OC)cc3N2C)c1=O | 2100
* CCN1C(=CC=c2sc(=CC3=CC(=Cc4sc5cc(C)c(C)cc5[n+]4CC)Oc4ccccc43)n(CC)c2=O)Sc2ccccc21 | 1400

Kindly review the next compound as well.
input: Would you mind telling me what solubility at 12 h value was observed for `CCN1C(=CC=c2sc(=Cc3cc[n+](C)c4ccccc34)n(C)c2=O)N(CC)c2ccccc21` ?
output: 4100

###

# Assay: Solubility in solvents (dissolution in incubator, filtration through microfilter, visible absorption)
# Assay type: physicochemical
# Study Conditions: water; Table 3; 720 min
Measurement Type: Solubility in Water (µg/mL)
Give bare numbers, in µg/mL.

- CCN1C(=CC=c2sc(=Cc3sc4c5ccccc5ccc4[n+]3C)n(CC)c2=O)Sc2ccc3ccccc3c21 [Compound 34]: 7100

I need Solubility in Water for every entry listed below, if you could help.
1. CN1C(=CC=c2sc(=Cc3sc4ccccc4[n+]3C)n(C)c2=O)Sc2ccccc21 [Compound 9]
2. CCN1C(=CC=c2sc(=Cc3sc4c5ccccc5ccc4[n+]3C)n(CC)c2=O)Sc2ccc3ccccc3c21 [Compound 36]
3. CN1C(=CC=c2sc(=Cc3sc4ccccc4[n+]3C)n(C)c2=O)Sc2ccccc21 [Compound 7]

output:
[3800, 4800, 6200]

input: Which value of Solubility in Water has been reported for CCN1C(=CC=c2sc(=Cc3sc4c5ccccc5ccc4[n+]3C)n(CC)c2=O)Sc2ccc3ccccc3c21 [Compound 33] in the records?
output: 5300

###

# Assay: Solubility in solvents (dissolution in incubator, filtration through microfilter, visible absorption)
# Type: physicochemical
# Study Conditions: water; Table 3; read-out: Solubility in Water
# Text: The solubility of some of the compounds within formula (I) was accurately measured. The measurement of solubility was made in the following manner.
For each of the molecules below, state its solubility at 12 h.
Give bare numbers, in µg/mL.

For orientation, consider the following solved cases.
- CCN1C(=CC=c2sc(=Cc3sc4ccccc4[n+]3CC)n(CC)c2=O)Sc2ccc(Cl)cc21 [Compound 3]: 7200
- CCn1c(=CC2=CC(=Cc3sc4ccccc4[n+]3CC)CC(C)(C)C2)sc(=C2Sc3ccccc3N2C)c1=O [Compound 148]: 3200
- CN1C(=c2sc(=Cc3cc[n+](C)cc3)n(C)c2=O)Sc2ccccc21 [Compound 145]: 8800
- CCn1c(=Cc2sc3ccccc3[n+]2CC)sc(=C2C=Cc3ccccc3N2C)c1=O [Compound 147]: 8100

// each molecule listed below needs its solubility at 12 h
1. CCn1c(=C2CCC[n+]3c2sc2ccccc23)sc(=C2Sc3ccccc3N2C)c1=O [Compound 156]
2. CCn1c(=Cc2sc3ccccc3[n+]2C)sc(=C2Oc3ccc4ccccc4c3N2C)c1=O [Compound 127]
3. CC[n+]1c(C=c2sc(=CC=C3C=CN(C)C=C3)c(=O)n2C)sc2ccccc21 [Compound 98]

output:
1: 3700; 2: 5700; 3: 6800

###

# Assay: Solubility in solvents (dissolution in incubator, filtration through microfilter, visible absorption)
# Format: physicochemical
# Study Conditions: methanol, organic solvent or mixture, MeOH; 37° C., 12 hours; Table 2; read-out: Solubility in MeOH
Measurement Type: solubility at 12 h (µg/mL)
Answers are plain numbers, in µg/mL.

input: Quick one: solubility at 12 h of CCN1C(=CC=c2sc(=Cc3cc[n+](CC)c4ccccc34)n(CC)c2=O)C=Cc2ccccc21 [reference compound] ?
output: 2800

###

# Assay: Solubility in solvents (dissolution in incubator, filtration through microfilter, visible absorption)
# Format: physicochemical
# Study Conditions: MeOH; 37° C., 12 hours; 720 min
I'd be grateful if you could share measured Solubility in MeOH for these entries.

Here's what some known entries look like.
* CCN1C(C)=CSC1=CC=c1sc(=Cc2sc3ccccc3[n+]2CC)n(CC)c1=O [Compound A, reference compound] | 1.11 mM
* CCN1C(=CC=c2sc(=Cc3sc4c5ccccc5ccc4[n+]3CC)n(CC)c2=O)Sc2ccc3ccccc3c21 [Compound 25] | > 25 mM
* CCN1C(=CC=c2sc(=Cc3sc4c5ccccc5ccc4[n+]3CC)n(CC)c2=O)Sc2ccc3ccccc3c21 [Compound E, reference compound] | 0.03 mM

Now take the following compound into account.
input: Name the recorded Solubility in MeOH for CCN1C(C)=CSC1=CC=c1sc(=Cc2sc3ccccc3[n+]2CC)n(CC)c1=O [Compound 53] .
output: > 33 mM
